B1: AUP1 (parent)
chain: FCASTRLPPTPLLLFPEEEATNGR

variants of: B1; experiment: protein stability index of a GFP-peptide fusion (GPS, HEK-293T) (PSI 1-6); higher = more stable; conditions: c terminus: a fixed tail appended;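 note: lentivirally expressed fusions sorted by FACS into six bins by GFP to DsRed ratio, PSI derived from sequencing read proportions per bin multiplied by bin number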
readout: protein stability index
Please reply with the number alone, leaving off any unit.

*Q* Look up protein stability index of S4E and report it.
*A* 3.52

*Q* # return recorded protein stability index for entry T10M
*A* 2.28

*Q* Answer with the recorded protein stability index for the variant listed here: R24E
*A* 3.4

*Q* Please report protein stability index for the following variant: N22W
*A* 2.27

*Q* For the variant E18Y , give its reported protein stability index.
*A* 2.07

*Q* Identify the reported protein stability index for the following entry. F15Q
*A* 3.35

*Q* For the variant R24Y , report protein stability index.
*A* 1.88

*Q* Item G23E : provide protein stability index
*A* 3.33

*Q* Please look at this variant and report its protein stability index: E19F
*A* 1.73

*Q* # return recorded protein stability index for input T5L
*A* 2.11

*Q* Annotate the variant R24K with its measured protein stability index.
*A* 3.12

*Q* For L13S , write its protein stability index.
*A* 3.54

*Q* // fetch protein stability index given entry S4G
*A* 2.85

*Q* Read off the recorded protein stability index for E18A
*A* 2.19

*Q* Give protein stability index for the following variant: T10Q
*A* 3.13

*Q* State, in one line, measured protein stability index of E18R
*A* 2.23

*Q* Answer with the recorded protein stability index for the variant listed here: G23A
*A* 2.86

*Q* Annotate the variant N22D with its measured protein stability index.
*A* 3.1

*Q* Provide protein stability index value for the following variant: P11N
*A* 2.83

*Q* In one line, give reported protein stability index of the entry A3W .
*A* 1.89

*Q* Dear colleague, please send me the reported protein stability index for R24S when you can.
*A* 3.01

*Q* Read the entry F1Q and write its reported protein stability index.
*A* 4.54

*Q* Please indicate protein stability index recorded for P11L
*A* 1.63

*Q* Supply measured protein stability index of N22A in your reply.
*A* 2.87

*Q* Consider the variant F1R . State its measured protein stability index.
*A* 4.24

*Q* Indicate its recorded protein stability index; the variant in question is P11V
*A* 2.8

*Q* Answer with the recorded protein stability index for the variant listed here: P11K
*A* 2.39

*Q* Dear colleague, please send me the reported protein stability index for A3K when you can.
*A* 2.5

*Q* Please give the documented protein stability index of A3D
*A* 3.33

*Q* Report protein stability index for P16I
*A* 1.62

*Q* Complete the entry with protein stability index for C2K
*A* 4.06

*Q* Look up protein stability index of R6M and report it.
*A* 3.27

*Q* Give recorded protein stability index. C2P
*A* 3.92

*Q* Please report protein stability index for the following variant: F1N
*A* 4.16

*Q* Kindly indicate its recorded protein stability index. Item: T10K
*A* 3.04

*Q* Give protein stability index for A20K
*A* 2.93

*Q* Give the reported value of protein stability index for this record: E17L
*A* 1.5

*Q* Hello, please tell me recorded protein stability index for this one: F1T
*A* 4.6

*Q* # return recorded protein stability index for entry A3R
*A* 2.23

*Q* Please look at this variant and report its protein stability index: L14A
*A* 3.58

*Q* Give protein stability index for C2N
*A* 3.82

*Q* Indicate its recorded protein stability index; the variant in question is E18F
*A* 1.82

*Q* Please indicate protein stability index recorded for F15H
*A* 3.34

*Q* Tell me protein stability index reported for T10I
*A* 2.52

*Q* Determine from records and report protein stability index for G23R
*A* 2.59

*Q* Hello, please tell me recorded protein stability index for this one: L12C
*A* 2.95

*Q* Give the measured protein stability index for R24P
*A* 3

*Q* Complete the entry with protein stability index for P16K
*A* 2.26

*Q* Indicate the recorded protein stability index value for this variant: L12E
*A* 4.1

*Q* For C2M , write its protein stability index.
*A* 3.73

*Q* Give a short answer stating reported protein stability index for T5A .
*A* 3.19

*Q* Name the recorded protein stability index of the item F15S in your answer.
*A* 3.45

*Q* Note down protein stability index recorded for R6F
*A* 2.2

*Q* Return value of protein stability index for input C2T , no commentary.
*A* 3.42

*Q* For P11S , write its protein stability index.
*A* 3.05

*Q* Given P11C , respond with its protein stability index.
*A* 2.57

*Q* For A3L , write its protein stability index.
*A* 3.27

*Q* Give the reported value of protein stability index for this record: N22I
*A* 2.11

*Q* Determine from records and report protein stability index for R6N
*A* 3.5

*Q* # return recorded protein stability index for entry T5D
*A* 3.44

*Q* Give recorded protein stability index. A20I
*A* 2.3

*Q* Output protein stability index of P8E
*A* 2.91

*Q* Given P8K , respond with its protein stability index.
*A* 2.09

*Q* State, in one line, measured protein stability index of P8F
*A* 2.43

*Q* Tell me measured protein stability index for L14H please.
*A* 3.49

*Q* Name the recorded protein stability index of the variant listed here: L12R
*A* 3.12

*Q* Give reported protein stability index value for T5F
*A* 1.81

*Q* Give protein stability index for L14P
*A* 3.48

*Q* Write down protein stability index measured for item N22S
*A* 2.5

*Q* Quote protein stability index reported for E17T please.
*A* 1.62

*Q* Provide measured protein stability index value, entry: E19M
*A* 2.08

*Q* Return the recorded protein stability index value; entry: A3E
*A* 3.67

*Q* Provide only the value of recorded protein stability index for T21F
*A* 2.28

*Q* Look up and report measured protein stability index for this entry: L13W
*A* 1.59

*Q* Consider the variant P8Y . State its measured protein stability index.
*A* 1.9

*Q* # return recorded protein stability index for input L13R
*A* 3.45

*Q* Using known records, supply protein stability index for L14C
*A* 2.4

*Q* Determine from records and report protein stability index for T5S
*A* 2.64

*Q* Look up and report measured protein stability index for this entry: P16W
*A* 2.48

*Q* Answer with the recorded protein stability index of T21V only.
*A* 2.7

*Q* Hello, please tell me recorded protein stability index for this one: F15E
*A* 3.46

*Q* Note protein stability index for the variant shown: E18P
*A* 2.15

*Q* State, in one line, measured protein stability index of P11T
*A* 2.74

*Q* Please give measured protein stability index of the following entry: P11H
*A* 2.33

*Q* Dear colleague, please send me the reported protein stability index for L12F when you can.
*A* 3.16

*Q* Read the entry L7R and write its reported protein stability index.
*A* 2.63

*Q* Provide protein stability index value for the following variant: T5P
*A* 3.16

*Q* Using the record for E19V , state its measured protein stability index.
*A* 2.33

*Q* Identify protein stability index associated with the variant P8V
*A* 2.41

*Q* Look up and report measured protein stability index for this entry: E19T
*A* 2.68

*Q* Using known records, supply protein stability index for R24D
*A* 3.3

Origin of measurements: the supplement of paper PMC10567573
